Target: T1, African green monkey TNFR2 (Chlorocebus sabaeus (African green …))
T1 construct: whole, on cells
Assay: equilibrium binding of VHH-Fc-GpL to cells expressing African green monkey TNFR2, 37 C; column head Affinity (ng/ml)
Procedure: Specific binding (open circles) was obtained by subtraction of the non-specific binding values (Hek293 cells—crosses) from the binding values for transfectants expressing human TNFR2 (total binding—closed circles). Specific binding was analyzed with the “nonlinear regression to a one-site specific binding curve” function of the GraphPad Prism5 software. […]
Exercise: for every item that follows, state its recorded Kd.
Answer in µg/mL, number only, no unit symbol.

query: Suppose we examine the binder VHH:C178-Fc-GpL (Fc fusion, also called VHH-Fc-GpL format protein of C178; not shown: The Fc domain, the C-terminal GpL reporter and the linkers or tags of the VHH-Fc-GpL construct; No entry gives the joined chain or says which Fc variant was used) VHH: DVQLVESGGGLVHPGGSLRLSCAASGFTFSADDATWARQPPGKGLEWISTLYFDTEEKTYADSVKGRFIISRDIAKNTVYLQMNNLKPEDTGMYVCTATWAGGSLLRPASFGVWGQGTQVTVSS ; what Kd value has been reported?
result: 0.06

query: Suppose we examine the binder VHH:C18-Fc-GpL (Fc fusion, also called VHH-Fc-GpL variant of C18; not shown: The Fc domain, the C-terminal GpL reporter and the linkers or tags of the VHH-Fc-GpL construct; No entry gives the joined chain or says which Fc variant was used) VHH: DVQLVESGGGSVQTGGSLTLSCAISGSTSERYCMGWFRQAPGREREGVAATSLTGRGAQFYADSVKGRFTISLDDAKNTLYLQMDSLRPDDTAVYYCAADVGFLCGYDSDNDPFYDWGQGTQVTVSS ; what Kd value has been reported?
result: 0.06
